Item-by-item account of pIC50
# TEST PROTOCOL: Inhibition of Hepatitis C virus genotype 1b NS3 helicase unwinding activity using fluorescent DNA substrate by molecular beacon assay
# Parameters: species or system Hepatitis C virus subtype 1b
pIC50: −log10 of the molar value.

Would you please look over these solved cases?
CCOC(=O)c1ccc(/C=C2/C=C(c3ccccc3)N(c3ccc(C)cc3)C2=O)cc1; < 3.00
Cc1ccc(N2C(=O)/C(=C\c3ccccc3)C=C2c2ccccc2)c(Br)c1; < 3.00
O=C1/C(=C\c2ccc(-c3ccccc3)cc2)C=C(c2ccccc2)N1c1ccccc1; < 3.00
CCOC(=O)c1ccc(/C=C2/C=C(c3ccccc3)N(c3ccc(C)cc3C)C2=O)cc1; < 3.00

Switching to the query record.
// returns reported pIC50 for input Cc1ccc2nc(-c3ccc4nc(-c5ccc(N)cc5)sc4c3)sc2c1S(=O)(=O)O
5.00

---

# TEST PROTOCOL: Inhibition of Hepatitis C virus genotype 1b NS3 helicase unwinding activity using fluorescent DNA substrate by molecular beacon assay
# Set-up: species or system Hepatitis C virus subtype 1b
MEASUREMENT LABEL: IC50

// solved cases for IC50 follow
CCOC(=O)c1ccc(/C=C2/C=C(c3ccccc3)N(c3ccccc3)C2=O)cc1; > 1000 µM
CCOC(=O)c1ccc(/C=C2\C=C(c3ccccc3)N(c3ccc(C)cc3Br)C2=O)cc1 (stereo in doubt; form 2); > 1000 µM
O=C1/C(=C\c2ccccc2)C=C(c2ccccc2)N1c1ccccc1; > 1000 µM
O=C1/C(=C\c2ccc(Br)cc2)C=C(c2ccccc2)N1c1ccccc1; > 1000 µM
O=C(O)C1=CC(=C(c2ccc(O)c(C(=O)O)c2)c2ccc(O)c(C(=O)O)c2)C=CC1=O; 0.3 µM

Sample COc1ccc(/C=C2/C=C(c3ccccc3)N(c3ccccc3)C2=O)cc1 — what was its IC50?
438 µM

---

# TEST PROTOCOL: Selectivity index, ratio of CC50 for human HuH5.2 cells to EC50 for Hepatitis C virus genotype 1b infected in human HuH5.2 cells
# Format: toxicity, cell-based
# PARTICULARS: HuH5.2 cells, read-out: Ratio CC50/EC50
MEASUREMENT LABEL: selectivity ratio
// response body must contain only the number

For orientation, consider the following solved cases.
N=c1c(S(=O)(=O)c2ccc(Cl)cc2)cc2c(=O)n3ccccc3nc2n1CCN1CCOCC1; 5.4
O=C1/C(=C\c2ccccc2)C=C(c2ccccc2)N1c1ccccc1; 6.4
CCOC(=O)c1ccc(/C=C2/C=C(c3ccccc3)N(c3ccccc3)C2=O)cc1; 4

Now examine the next entry.
Which selectivity ratio value belongs to COc1ccc(/C=C2/C=C(c3ccccc3)N(c3ccccc3)C2=O)cc1 ?
18

---

# TEST PROTOCOL: Selectivity index, ratio of CC50 for human HuH5.2 cells to EC50 for Hepatitis C virus genotype 1b infected in human HuH5.2 cells
# Assay type: toxicity, cell-based
# PARTICULARS: HuH5.2 cells, read-out: Ratio CC50/EC50
MEASUREMENT LABEL: selectivity ratio
Answer using only a numeral; do not append any unit.

Given the compound O=C1/C(=C\c2ccc(-c3ccccc3)cc2)C=C(c2ccccc2)N1c1ccccc1 , what is its reported selectivity ratio?
9.7

Given O=C1/C(=C\c2ccc(Br)cc2)C=C(c2ccccc2)N1c1ccccc1 , state its recorded selectivity ratio.
6

Requested field: selectivity ratio. Item: CN1CCN(Cc2c3c(c(CN4CCN(C)CC4)c4c2CCC4)CCC3)CC1
4.8

---

# TEST PROTOCOL: Cytotoxicity against human HuH5.2 cells assessed as anti-metabolic effect after 72 hrs by MTT assay
# Type: ADME, cell-based, Huh-5-2
# PARTICULARS: HuH5.2 (Huh-5-2) cells
CC50 at 72 h: recorded values

Please review the entries below; each comes with its answer.
CCOC(=O)c1ccc(/C=C2/C=C(c3ccccc3)N(c3ccc(C)cc3C)C2=O)cc1; 47 to 90.8 µM
Oc1c(CN2CCOCC2)cc(CN2CCOCC2)cc1CN1CCOCC1; > 255 µM
CCOC(=O)c1ccc(/C=C2\C=C(c3ccccc3)N(c3ccc(C)cc3Br)C2=O)cc1 (stereo in doubt; form 1); 204 to 205 µM
CN1CCN(CC2=C(O)C(=O)N(CCc3ccccc3)C3C=CC=CN23)CC1 (configuration not stated); > 264 µM
CCOC(=O)c1ccc(/C=C2/C=C(c3ccccc3)N(c3ccc(C)cc3)C2=O)cc1; > 244 µM

Look up CC50 at 72 h: Cc1ccc(N2C(=O)/C(=C\c3ccccc3)C=C2c2ccccc2)c(Br)c1
> 240 µM

Which CC50 at 72 h is reported for this compound? CN(C)c1ccc(/C=C2\C(=O)N(c3ncc(-c4ccc(Cl)cc4)s3)N=C2c2ccccc2)cc1
> 206 µM
